KRAS WT (Homo sapiens): reported IC50 for various molecules.

# count of solved cases: 5
> print(dat)
                                   molecule  experimental.value
1  CCc1c(F)ccc2cc(O)cc(-c3c(F)c4nc(OC[C@@]56CCCN5C[C@H](F)C6)nc(N5C[C@H]6COC[C@H]6C5)c4c4cn(C)nc34)c12             ≤ 10 nM
2  CCc1c(F)ccc2cc(O)cc(-c3c(F)c4nc(OCC56COC(COC)(C5)C6)nc(N5CC6CCC(C5)N6)c4c4cn(C)nc34)c12     100 to 10000 nM
3  CCc1c(F)ccc2cc(O)cc(-c3c(F)c4nc(OCC5(CN6CCC7(CCOCC7)C6)CC5)nc(N5CCOCC(C)(O)C5)c4c4cn(C)nc34)c12 (centres unmarked)             ≤ 10 nM
4  CCNC(=O)c1cc2n(n1)CCCN(c1nc(OC[C@@]34CCCN3C[C@H](F)C4)nc3c(F)c(-c4cc(O)cc5ccc(F)c(CC)c45)c4nn(C)cc4c13)C2             ≤ 10 nM
5  CCc1c(F)ccc2cc(O)cc(-c3c(C)c4nc(OCC5(C)C[C@@H](O)CN5C)nc(N5CCOCC(C)(O)C5)c4c4cn(C)nc34)c12 (some centres unmarked)             ≤ 10 nM

Measured IC50 for this entry CCc1c(F)ccc2cc(O)cc(-c3cc4nc(OC[C@@]56CCCN5C[C@H](F)C6)nc(N5CCCCC(C)(O)C5)c4c4cn(C)nc34)c12 (some centres unmarked) on KRAS WT (Homo sapiens): ≤ 10 nM

The measured IC50 that CCc1c(F)ccc2cc(O)cc(-c3cc4nc(OC[C@@]56CCCN5C[C@H](F)C6)nc(N5CC6CCC(C5)N6)c4c4cn(C)nc34)c12 showed for KRAS WT (Homo sapiens) is 10 to 100 nM

IC50 on KRAS WT (Homo sapiens) for CCc1c(F)ccc2cc(O)cc(-c3cc4nc(OC[C@@H]5C[C@@H](OC)CN5)nc(N5CCCn6nc(C(=O)N(C)C)cc6C5)c4c4cn(C)nc34)c12 is 10 to 100 nM

* * *

Molecular target: KRAS WT (Homo sapiens, UniProt P01116)
Sequence (P01116 1-188 isoform P01116-2): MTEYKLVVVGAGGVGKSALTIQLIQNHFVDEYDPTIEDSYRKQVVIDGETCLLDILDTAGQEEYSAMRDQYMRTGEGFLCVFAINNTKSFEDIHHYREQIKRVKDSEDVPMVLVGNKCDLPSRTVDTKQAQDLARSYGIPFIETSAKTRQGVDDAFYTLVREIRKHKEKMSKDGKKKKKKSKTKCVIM
pIC50: −log10 of the molar value.
metric: pIC50

Observe how each entry below is paired with its result.
> print(dat)
                                   compound  experimental.value
1  CCc1c(F)ccc2cc(O)cc(-c3c(F)c4nc(OC[C@@]56CCCN5C[C@H](F)C6)nc(N5CCC(C#N)CC5)c4c4cn(C)nc34)c12              ≥ 8.00
2  CCc1c(F)ccc2cc(O)cc(-c3cc4nc(OC[C@@]56CCCN5C[C@H](F)C6)nc(N5CCC(C)(OC)CC5)c4c4cn(C)nc34)c12        5.00 to 7.00
3  CCc1c(F)ccc2cc(O)cc(-c3c(C)c4nc(OCC5(CO)CC5)nc(N5CC6CCC(C5)N6)c4c4cn(C)nc34)c12        5.00 to 7.00

Field pIC50 (KRAS WT (Homo sapiens, UniProt P01116)), entry CCc1c(F)ccc2cc(O)cc(-c3c(F)c4nc(OC[C@@H]5CCCN5C)nc(N5CCOCC(C)(O)C5)c4c4cn(C)nc34)c12 (some centres unmarked) : ≥ 8.00

Summary line: CCc1c(F)ccc2cc(O)cc(-c3c(F)c4nc(OCC5(CN6CC[C@@H](O)C6)CC5)nc(N5CCOCC(C)(O)C5)c4c4cn(C)nc34)c12 (some centres unmarked) , KRAS WT (Homo sapiens, UniProt P01116), reported pIC50 = ≥ 8.00
